- Test system: K. pneumoniae NVT1001 and its ΔompK35/36 and/or ΔramR mutants
- protocol text: Etest MIC, OmpK35/36 loss and AcrAB-TolC overexpression (ΔramR) strains (Table 6)
- Assay type: cell-based, Klebsiella pneumoniae
- condition summary: Klebsiella pneumoniae, ΔramRΔ35, ΔramRΔompK35 mutant
Lab note - cut at 20 µg/mL for MIC: True if strictly below, False if not.

                                   molecule                               test_target  class_name
0  C[C@H]1c2cccc(O)c2C(=O)C2=C(O)[C@]3(O)C(=O)C(C(N)=O)=C(O)[C@@H](N(C)C)[C@@H]3[C@@H](O)[C@@H]21  K. pneumoniae NVT1001 and its ΔompK35/36 and/or ΔramR mutants       False
1  O=C(N[C@H](CO)[C@H](O)c1ccc([N+](=O)[O-])cc1)C(Cl)Cl  K. pneumoniae NVT1001 and its ΔompK35/36 and/or ΔramR mutants       False
2  CC1COc2c(N3CCN(C)CC3)c(F)cc3c(=O)c(C(=O)O)cn1c23 (centres unmarked)  K. pneumoniae NVT1001 and its ΔompK35/36 and/or ΔramR mutants        True
3  CN[C@@H]1[C@H](O)[C@H](NC)[C@H]2O[C@@]3(O)C(=O)C[C@@H](C)O[C@H]3O[C@@H]2[C@H]1O  K. pneumoniae NVT1001 and its ΔompK35/36 and/or ΔramR mutants        True

Please determine if C[C@@H](O)[C@H]1C(=O)N2C(C(=O)O)=C(SCCN=CN)C[C@H]12 is below 20 µg/mL in terms of MIC.
True

----------
- Tested on: K. pneumoniae NVT1001 strains with carbapenemase plasmids
- protocol text: Etest MIC of β-lactams, OmpK35/36 loss, ΔramR and/or carbapenemase (Table 9)
- Assay type: cell-based, Klebsiella pneumoniae
- condition summary: Klebsiella pneumoniae, OXA-48 on pACYC177; WT (NVT1001); read-out: MIC
log10 of MIC values by entry
A value of 2 here means MIC of 100 in mg/L, since values are log10.

Below, 5 molecules whose answers are already recorded.
>>> df
                                   molecule  numeric_value
0  CO/N=C(\C(=O)N[C@@H]1C(=O)N2C(C(=O)O)=C(COC(C)=O)CS[C@H]12)c1csc(N)n1           0.30
1  CCO/N=C(\C(=O)N[C@@H]1C(=O)N2C(C(=O)[O-])=C(Sc3nc(-c4cc[n+](C)cc4)cs3)CS[C@H]12)c1nsc(N)n1           0.90
2  CO/N=C(\C(=O)N[C@@H]1C(=O)N2C(C(=O)[O-])=C(C[N+]3(C)CCCC3)CS[C@H]12)c1csc(N)n1 [Cefepime]          -0.30
3  C[C@@H](O)[C@H]1C(=O)N2C(C(=O)O)=C(S[C@@H]3CN[C@H](C(=O)N(C)C)C3)[C@H](C)[C@H]12           0.30
4  CC(C)(O/N=C(\C(=O)N[C@@H]1C(=O)N2C(C(=O)[O-])=C(C[n+]3ccccc3)CS[C@H]12)c1csc(N)n1)C(=O)O          -0.30

Value of log10 of MIC reported for the molecule C[C@@H](O)[C@H]1C(=O)N2C(C(=O)O)=C(SCCN=CN)C[C@H]12 is 0.60

Value of log10 of MIC reported for the molecule CC(=O)OCC1=C(C(=O)O)N2C(=O)[C@@H](NC(=O)Cc3cccs3)[C@H]2SC1 is 2.41

----------
- Tested on: K. pneumoniae NVT1001 strains with carbapenemase plasmids
- protocol text: Etest MIC of β-lactams, OmpK35/36 loss, ΔramR and/or carbapenemase (Table 9)
- Format: cell-based, Klebsiella pneumoniae
- condition summary: Klebsiella pneumoniae, NDM-1 on pACYC177; Δ36 (ΔompK36 mutant)
recorded metric: MIC

Below, 2 molecules whose answers are already recorded.
>>> print(df.to_string())
                                     smiles      result
0  C[C@@H](O)[C@H]1C(=O)N2C(C(=O)O)=C(S[C@@H]3CN[C@H](C(=O)Nc4cccc(C(=O)O)c4)C3)[C@H](C)[C@H]12  > 32 µg/mL
1  C[C@@H](O)[C@H]1C(=O)N2C(C(=O)O)=C(S[C@@H]3CN[C@H](C(=O)N(C)C)C3)[C@H](C)[C@H]12  > 32 µg/mL

Value of MIC reported for the molecule CO/N=C(\C(=O)N[C@@H]1C(=O)N2C(C(=O)O)=C(COC(N)=O)CS[C@H]12)c1ccco1 is > 256 µg/mL

Value of MIC reported for the molecule CO[C@@]1(NC(=O)Cc2cccs2)C(=O)N2C(C(=O)O)=C(COC(N)=O)CS[C@@H]21 is > 256 µg/mL

Value of MIC reported for the molecule C[C@@H](O)[C@H]1C(=O)N2C(C(=O)O)=C(S[C@@H]3CN[C@H](CNS(N)(=O)=O)C3)[C@H](C)[C@H]12 is > 32 µg/mL

----------
MIC values by entry
- Test system: K. pneumoniae NVT1001 strains with aminoglycoside resistance plasmids
- protocol text: Etest MIC of aminoglycosides, aminoglycoside-modifying enzyme or 16S rRNA methylase (Table 13)
- Type: cell-based, Klebsiella pneumoniae
- condition summary: NVT1001 with AAC(3)-IVa on pACYC184
Write down the numeric answer in µg/mL and omit the unit.

smiles	MIC, µg/mL
CCN[C@@H]1C[C@H](N)[C@@H](O[C@H]2OC(CN)=CC[C@H]2N)[C@H](O)[C@H]1O[C@H]1OC[C@](C)(O)[C@H](NC)[C@H]1O	64
CN[C@@H]1[C@H](O)[C@H](NC)[C@H]2O[C@@]3(O)C(=O)C[C@@H](C)O[C@H]3O[C@@H]2[C@H]1O	16

Value of MIC reported for the compound NC[C@@H]1O[C@@H](O[C@H]2[C@H](O)[C@@H](O[C@H]3O[C@H](CO)[C@@H](O)[C@H](N)[C@H]3O)[C@H](N)C[C@@H]2N)[C@@H](O)[C@H](O)[C@H]1O is 8

----------
MIC values by entry
- System: K. pneumoniae NVT1001 strains with QnrB, QnrS or AAC(6′)-Ib-cr plasmids
- protocol text: Etest MIC of quinolones, GyrA/ParC mutations, ΔramR and/or QnrB, QnrS or AAC(6′)-Ib-cr (Table 12)
- Type: cell-based
- condition summary: Klebsiella pneumoniae, QnrB on pACYC177; ΔramR/S83I/D87N/S80I mutant

Below, 4 molecules whose answers are already recorded.
                                   molecule       result
0  CC1COc2c(N3CCN(C)CC3)c(F)cc3c(=O)c(C(=O)O)cn1c23 (centres unmarked)   > 32 µg/mL
1  C[C@H]1COc2c(N3CCN(C)CC3)c(F)cc3c(=O)c(C(=O)O)cn1c23   > 32 µg/mL
2  CCn1cc(C(=O)O)c(=O)c2cc(F)c(N3CCNCC3)cc21  > 256 µg/mL
3           CCn1cc(C(=O)O)c(=O)c2ccc(C)nc21  > 256 µg/mL

Then this molecule:
Bench note, K. pneumoniae NVT1001 strains with QnrB, QnrS or AAC(6′)-Ib-cr plasmids: entry COc1c(N2C[C@@H]3CCCN[C@@H]3C2)c(F)cc2c(=O)c(C(=O)O)cn(C3CC3)c12 , its MIC = > 32 µg/mL

----------
MIC values by entry
- Tested on: K. pneumoniae NVT1001 gyrA/parC and gyrA/parC/ramR mutants and revertants
- protocol text: Etest MIC of quinolones, gyrA/parC and gyrA/parC/ramR mutants and their revertants (Table 11)
- Assay type: cell-based
- condition summary: Klebsiella pneumoniae, S83L/D87N/S80I::N87D/I80S revertant; read-out: MIC
- Description: The allelic-exchange method was used to restore the wild-type gene in the K. pneumoniae NVT1001 mutants with constructed chromosome-mediated resistance mechanisms, as described by Tsai et al.^19 Briefly, a DNA fragment of the entire wild-type gene sequence along with flanking regions was amplified from K. pneumoniae NVT1001 using PCR with specific primers. […] The MICs of antibiotics were determined using the Etest (Biodisk AB, Sweden) according to the manufacturer's instructions. […]
Write down the numeric answer in µg/mL and omit the unit.

>>> print(df.to_string())
                                   compound  numeric_value
0  CCn1cc(C(=O)O)c(=O)c2cc(F)c(N3CCNCC3)cc21              2
1  CC1COc2c(N3CCN(C)CC3)c(F)cc3c(=O)c(C(=O)O)cn1c23 (centres unmarked)              2
2  C[C@H]1COc2c(N3CCN(C)CC3)c(F)cc3c(=O)c(C(=O)O)cn1c23              1

Then this compound:
Value of MIC reported for the compound COc1c(N2C[C@@H]3CCCN[C@@H]3C2)c(F)cc2c(=O)c(C(=O)O)cn(C3CC3)c12 is 0.5

Just for reference, patent US10760110B2 is where these values come from.
